experimental target: Free fatty acid receptor 1 (Homo sapiens, UniProt O14842)
Sequence (O14842 whole entry): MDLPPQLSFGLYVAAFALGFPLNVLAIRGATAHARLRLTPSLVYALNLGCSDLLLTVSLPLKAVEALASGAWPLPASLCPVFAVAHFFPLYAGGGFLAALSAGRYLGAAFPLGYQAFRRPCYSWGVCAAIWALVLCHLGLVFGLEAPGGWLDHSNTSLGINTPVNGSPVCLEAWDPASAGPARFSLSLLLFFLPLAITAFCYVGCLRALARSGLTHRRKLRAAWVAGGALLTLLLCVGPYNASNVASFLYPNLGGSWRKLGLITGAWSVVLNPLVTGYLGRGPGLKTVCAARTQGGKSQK
protocol notes: Agonist activity at human GPR40/FFA1 expressed in CHO cells assessed as increase in calcium flux at 1 uM by Fluo-8 AM dye based FLIPR method relative to 10 uM GW9508
Type: functional, cell-based
Listing: Activity of selected compounds
quantity name: Activity (%)

[[record]]
compound = "O=C(O)CCc1ccc(NC(=O)c2nnc(CC(c3ccccc3)c3ccccc3F)s2)cc1 (configuration not stated)"
value = 68.6

[[record]]
compound = "O=C(O)CCc1ccc(NC(=O)c2nnc(CC(c3ccccc3)c3ccc4c(c3)OCO4)s2)cc1 (configuration not stated)"
value = 60.3

[[record]]
compound = "O=C(O)CCc1ccc(NC(=O)c2nnc(Cc3cccc(Cl)c3)s2)cc1"
value = 79.4

[[record]]
compound = "O=C(O)CCc1ccc(NC(=O)c2nnc(Cc3ccccc3)s2)cc1"
value = 70.1

[[record]]
compound = "COc1ccc(C(Cc2nnc(C(=O)Nc3ccc(CCC(=O)O)cc3)s2)c2ccccc2)cc1 (configuration not stated)"
value = 78.9

[[record]]
compound = "Cc1nnc(NC(=O)c2nnc(C(=O)Nc3ccc(OCC(=O)O)cc3)s2)s1"
value = 9.8

[[record]]
compound = "Cc1cccc(NC(=O)c2nnc(C(=O)Nc3ccc(OCC(=O)O)cc3)s2)c1"
value = 6

[[record]]
compound = "COc1cccc(NC(=O)c2nnc(C(=O)Nc3ccc(OCC(=O)O)cc3)s2)c1"
value = 9.2

[[record]]
compound = "Cc1cccc(OCc2nnc(C(=O)Nc3ccc(CCC(=O)O)cc3)s2)c1"
value = 82.4

[[record]]
compound = "Cc1ccccc1OCc1nnc(C(=O)Nc2ccc(CCC(=O)O)cc2)s1"
value = 89.9

[[record]]
compound = "Cc1cccc(NC(=O)c2nnc(C(=O)Nc3ccc(OCC(=O)O)cc3)s2)c1C"
value = 6.6

[[record]]
compound = "O=C(O)COc1ccc(NC(=O)c2nnc(C(=O)Nc3ccc(F)cc3)s2)cc1"
value = 6


---

experimental target: Free fatty acid receptor 1 (Homo sapiens, UniProt O14842)
protocol notes: Agonist activity at human GPR40/FFA1 expressed in CHO cells assessed as increase in calcium flux at 1 uM by Fluo-8 AM dye based FLIPR method relative to 10 uM GW9508
Assay type: functional, cell-based
Listed here are compounds together with their documented Activity.
quantity name: Activity (%)

[[record]]
smiles = "CCc1ccc(OCc2nnc(C(=O)Nc3ccc(CCC(=O)O)cc3)s2)cc1"
quantity_name = "Activity"
value = 74.4

[[record]]
smiles = "CCOC(=O)c1ccc(NC(=O)c2nnc(C(=O)Nc3ccc(OCC(=O)O)cc3)s2)cc1"
quantity_name = "Activity"
value = 9.4

[[record]]
smiles = "O=C(O)CCc1ccc(NC(=O)c2nnc(COc3cccc(C(F)(F)F)c3)s2)cc1"
quantity_name = "Activity"
value = 70.1

[[record]]
smiles = "COc1ccc(OCc2nnc(C(=O)Nc3ccc(CCC(=O)O)cc3)s2)cc1"
quantity_name = "Activity"
value = 72.5

[[record]]
smiles = "O=C(O)COc1ccc(NC(=O)c2nnc(C(=O)Nc3ccc(F)cc3F)s2)cc1"
quantity_name = "Activity"
value = 6.6

[[record]]
smiles = "Cc1ccc(C)c(OCc2nnc(C(=O)Nc3ccc(CCC(=O)O)cc3)s2)c1"
quantity_name = "Activity"
value = 88.2

[[record]]
smiles = "Cc1ccc(NC(=O)c2nnc(C(=O)Nc3ccc(OCC(=O)O)cc3)s2)cc1"
quantity_name = "Activity"
value = 7

[[record]]
smiles = "CCOC(=O)c1cccc(NC(=O)c2nnc(C(=O)Nc3ccc(OCC(=O)O)cc3)s2)c1"
quantity_name = "Activity"
value = 6.4

[[record]]
smiles = "COc1ccc(C)cc1NC(=O)c1nnc(C(=O)Nc2ccc(OCC(=O)O)cc2)s1"
quantity_name = "Activity"
value = 6.6

[[record]]
smiles = "O=C(O)COc1ccc(NC(=O)c2nnc(C(=O)Nc3ccc(Br)cc3)s2)cc1"
quantity_name = "Activity"
value = 5.9


---

experimental target: Free fatty acid receptor 1 (Homo sapiens, UniProt O14842)
protocol notes: Agonist activity at human GPR40/FFA1 expressed in CHO cells assessed as increase in calcium flux at 1 uM by Fluo-8 AM dye based FLIPR method
Each record is given 1 if its reported EC50 is strictly below 2 µM. Records at or above 2 µM are given 0.

[[record]]
compound = "O=C(O)CCc1ccc(NC(=O)c2nnc(COc3cccc(Cl)c3)s2)cc1"
experimental_target = "Free fatty acid receptor 1 (Homo sapiens, UniProt O14842)"
label_class = 1

[[record]]
compound = "CCOC(=O)c1cccc(NC(=O)c2nnc(C(=O)Nc3ccc(OCC(=O)O)cc3)s2)c1"
experimental_target = "Free fatty acid receptor 1 (Homo sapiens, UniProt O14842)"
label_class = 0

[[record]]
compound = "O=C(O)COc1ccc(NC(=O)c2nnc(C(=O)Nc3ccc(F)cc3)s2)cc1"
experimental_target = "Free fatty acid receptor 1 (Homo sapiens, UniProt O14842)"
label_class = 0

[[record]]
compound = "Cc1ccc(OCc2nnc(C(=O)Nc3ccc(CCC(=O)O)cc3)s2)cc1C"
experimental_target = "Free fatty acid receptor 1 (Homo sapiens, UniProt O14842)"
label_class = 1

[[record]]
compound = "O=C(O)COc1ccc(NC(=O)c2nnc(C(=O)Nc3ccccc3)s2)cc1"
experimental_target = "Free fatty acid receptor 1 (Homo sapiens, UniProt O14842)"
label_class = 0

[[record]]
compound = "Cc1cccc(OCc2nnc(C(=O)Nc3ccc(CCC(=O)O)cc3)s2)c1"
experimental_target = "Free fatty acid receptor 1 (Homo sapiens, UniProt O14842)"
label_class = 0

[[record]]
compound = "O=C(O)CCc1ccc(NC(=O)c2nnc(Cc3cccc(F)c3)s2)cc1"
experimental_target = "Free fatty acid receptor 1 (Homo sapiens, UniProt O14842)"
label_class = 0

[[record]]
compound = "Cc1ccc(NC(=O)c2nnc(C(=O)Nc3ccc(OCC(=O)O)cc3)s2)cc1C"
experimental_target = "Free fatty acid receptor 1 (Homo sapiens, UniProt O14842)"
label_class = 0

[[record]]
compound = "O=C(O)CCc1ccc(NC(=O)c2nnc(COc3ccc(F)cc3)s2)cc1"
experimental_target = "Free fatty acid receptor 1 (Homo sapiens, UniProt O14842)"
label_class = 0

[[record]]
compound = "O=C(O)CCc1ccc(NC(=O)c2nnc(Cc3ccccc3)s2)cc1"
experimental_target = "Free fatty acid receptor 1 (Homo sapiens, UniProt O14842)"
label_class = 0

[[record]]
compound = "O=C(O)CCc1ccc(NC(=O)c2nnc(COc3cccc(C(F)(F)F)c3)s2)cc1"
experimental_target = "Free fatty acid receptor 1 (Homo sapiens, UniProt O14842)"
label_class = 0

[[record]]
compound = "COc1ccc(OCc2nnc(C(=O)Nc3ccc(CCC(=O)O)cc3)s2)cc1"
experimental_target = "Free fatty acid receptor 1 (Homo sapiens, UniProt O14842)"
label_class = 0

[[record]]
compound = "Cc1cccc(NC(=O)c2nnc(C(=O)Nc3ccc(OCC(=O)O)cc3)s2)c1C"
experimental_target = "Free fatty acid receptor 1 (Homo sapiens, UniProt O14842)"
label_class = 0

[[record]]
compound = "Cc1ccc(NC(=O)c2nnc(C(=O)Nc3ccc(OCC(=O)O)cc3)s2)cc1"
experimental_target = "Free fatty acid receptor 1 (Homo sapiens, UniProt O14842)"
label_class = 0

[[record]]
compound = "COc1ccc(C(Cc2nnc(C(=O)Nc3ccc(CCC(=O)O)cc3)s2)c2ccccc2)cc1 (configuration not stated)"
experimental_target = "Free fatty acid receptor 1 (Homo sapiens, UniProt O14842)"
label_class = 1

[[record]]
compound = "O=C(O)COc1ccc(NC(=O)c2nnc(C(=O)Nc3ccc(F)cc3F)s2)cc1"
experimental_target = "Free fatty acid receptor 1 (Homo sapiens, UniProt O14842)"
label_class = 0

[[record]]
compound = "O=C(O)CCc1ccc(NC(=O)c2nnc(COc3ccc4c(c3)CCC4)s2)cc1"
experimental_target = "Free fatty acid receptor 1 (Homo sapiens, UniProt O14842)"
label_class = 1

[[record]]
compound = "O=C(O)CCc1ccc(NC(=O)c2nnc(CC(c3ccccc3)c3ccccc3F)s2)cc1 (configuration not stated)"
experimental_target = "Free fatty acid receptor 1 (Homo sapiens, UniProt O14842)"
label_class = 1

[[record]]
compound = "O=C(O)CCc1ccc(NC(=O)c2nnc(CC(c3ccccc3)c3ccc(Cl)cc3)s2)cc1 (configuration not stated)"
experimental_target = "Free fatty acid receptor 1 (Homo sapiens, UniProt O14842)"
label_class = 0

[[record]]
compound = "Cc1ccc(OCc2nnc(C(=O)Nc3ccc(CCC(=O)O)cc3)s2)cc1"
experimental_target = "Free fatty acid receptor 1 (Homo sapiens, UniProt O14842)"
label_class = 0

[[record]]
compound = "O=C(O)COc1ccc(NC(=O)c2nnc(C(=O)Nc3ccc(F)c(F)c3)s2)cc1"
experimental_target = "Free fatty acid receptor 1 (Homo sapiens, UniProt O14842)"
label_class = 0

[[record]]
compound = "O=C(O)COc1ccc(NC(=O)c2nnc(C(=O)Nc3ccc(Br)cc3)s2)cc1"
experimental_target = "Free fatty acid receptor 1 (Homo sapiens, UniProt O14842)"
label_class = 0

